System: MALME-3M melanoma
Experiment: NCI tumour cell line growth inhibition, 48 h
MEASUREMENT TYPE: TGI

Consider the compound O=C(Nc1ccc(Cl)cc1)Nc1ccc(Nc2nncc3ccccc23)cc1 . State its measured TGI.
16.5 µM

Quick one: give measured TGI for CCN(CC)Cc1ccc(Nc2nccc(-c3cnn4ncccc34)n2)cc1
0.11 µM

Write down TGI measured for item O=CN/C=C/c1ccc(O)c(O)c1
> 100 µM

Recall and state the measured TGI for COc1ccc(OC)c(NC(=O)CCC/C(CC(=O)c2ccc(O)c(OC)c2)=N\Nc2ccc([N+](=O)[O-])cc2)c1 .
> 100 µM

Dear colleague, please send me the reported TGI for O=C(COc1ccc(/C=C2\Oc3ccccc3C2=O)cc1)Nc1nc2c(s1)CCCC2 when you can.
> 78.5 µM

Note down TGI recorded for COc1ccc2c(c1)C(=O)c1c-2c(N(C)C)nc2ccccc12
> 100 µM

Give the value of TGI reported for the following: C/C=C(/C)C(=O)O[C@H](C[C@@H](C)[C@H]1CC(c2ccoc2)OC1=O)[C@@]1(C)C(=O)CCC2O[C@]21C (some centres not stated)
> 100 µM

----------
Tested on: RXF 393 renal
Assay: NCI tumour cell line growth inhibition, 48 h
MEASUREMENT TYPE: TGI

Find the measured TGI of CC1(C)C2C=CC1(C)C1(CC2)OCCO1 (stereo not given) with RXF 393 renal as test system.
> 100 µM

Report the value of TGI obtained on RXF 393 renal for C/C(CC(=O)Nc1ccc(Cl)cc1)=N\NC(N)=S .
> 100 µM

Identify measured TGI obtained with RXF 393 renal for O=C(O)c1ccn(-c2cccc(-n3ccc(C(=O)O)n3)n2)n1 .
> 100 µM

Lab note: record TGI of COc1ccc(C(C#N)Cc2cc(OC)c(OC)c(OC)c2)cc1 (stereo not given) tested on RXF 393 renal.
45.2 µM

Return reported TGI for target or system RXF 393 renal, item Cc1ccc(N2C(=O)C3C=CC(n4[nH]c(=O)n(Cc5ccccc5)c4=O)CC3C2=O)cc1 (stereo not given) .
> 100 µM

Provide the reported TGI (system: RXF 393 renal) for CC(C)(Oc1ccc(Cl)cc1)C(=O)N(C(=O)N1CCC(c2ccccc2)CC1)c1ccccc1
> 100 µM

State, for RXF 393 renal, measured TGI of the molecule listed here: COc1c(O)cc(O)c2c(=O)cc(-c3ccccc3)oc12
42.7 µM

Give RXF 393 renal TGI for the following molecule: CN(C)c1nc2oc(-c3ccccc3)c(-c3ccccc3)c2c2nnnn12
> 100 µM

Tell me its TGI on RXF 393 renal: COc1c2c(nc3ccccc13)-c1cc3c(c(=O)n1C2)COC(=O)C3(O)CC(=O)N1CCOCC1 (stereo not given)
26.9 µM

Provide measured TGI on RXF 393 renal for CCOC(=O)c1nc2ccc(C(F)(F)F)cc2nc1Oc1cc(OC)cc(OC)c1 please.
> 100 µM

Please indicate recorded TGI of C=C(C)C(O)C(O)c1c(OC)ccc2ccc(=O)oc12 (stereo not given) measured with RXF 393 renal.
> 100 µM

Fill in: TGI on RXF 393 renal, entry COC(=O)c1cc(Cl)ccc1NC(=O)c1ccc([N+](=O)[O-])cc1
65.6 µM

Provide RXF 393 renal TGI reading for C[C@@H]1CC[C@H]2C(C(O)CCCCC(O)C3=C(C(F)(F)F)O[C@@H]4O[C@@]5(C)CC[C@H]6[C@H](C)CC[C@@H]3[C@@]46OO5)=C(C(F)(F)F)O[C@@H]3O[C@@]4(C)CC[C@@H]1[C@]32OO4 (stereo not given in full) .
> 100 µM

State recorded TGI with RXF 393 renal, entry COc1ccc(C(=O)c2cc3c(N)c(C(=O)Nc4cccc5ccccc45)sc3nc2C)cc1 , no comment.
> 50 µM

Give RXF 393 renal TGI for the following molecule: COc1cc(C2c3cc4c(cc3OC(NNC(N)=O)C2C)OCO4)cc(OC)c1O (stereo not given)
> 20.9 µM

# return TGI for O=C1/C(=N\S(=O)(=O)c2ccccc2)C([n+]2ccc(Cc3ccccc3)cc2)=C([O-])c2ccccc21 , test system: RXF 393 renal
6.59 µM

Print RXF 393 renal TGI for CC#CC(=O)SCCNC(=O)CC .
> 9.55 µM

Give measured TGI for COc1ccc(OC)c(NC(=O)CCC/C(CC(=O)c2ccc(O)c(OC)c2)=N\Nc2ccc([N+](=O)[O-])cc2)c1 (RXF 393 renal).
78.6 µM

Given CC(=O)c1c(C(F)(F)F)n([O-])c2cc(Cl)c(Cl)cc2[n+]1=O , report its TGI on RXF 393 renal.
2.51 µM

Write down measured TGI (RXF 393 renal) for this molecule. C=C1c2[nH]c3c([N+](=O)[O-])c(OC)ccc3c2CCN1C(C)=O
> 100 µM

Find TGI for CC1=C2C(=CC(C)(C)C2O)C(=O)C(C)(O)C12CC2 (stereo not given) on RXF 393 renal and write it down.
0.0194 µM

# return TGI of NNC(=O)Cn1c2ccc(Br)cc2c2nc3ccccc3nc21 (system: RXF 393 renal)
> 100 µM

Fill in TGI for COc1ccc(C(=O)C(c2ccc(OC)cc2)C2(O)C(=O)Nc3c2ccc(Cl)c3C)cc1 (stereo not given) tested with RXF 393 renal.
> 100 µM

State, for RXF 393 renal, measured TGI of the molecule listed here: CC1CC/C(=C\c2ccc(Cl)cc2)C2OC(N)=C(C#N)C(c3ccc(Cl)cc3)=C12 (stereo not given)
71.8 µM

Quote RXF 393 renal TGI for entry O=c1[nH]nc(-c2ccccc2)n1/N=C/c1cccnc1 .
> 100 µM

Write TGI of COC(=O)c1cc2ccc(OC(C)=O)c(OC(C)=O)c2cn1 ; system used: RXF 393 renal
33.4 µM

Provide TGI, recorded with RXF 393 renal, of Cc1[nH]c2ccccc2c1C1Cc2ccccc2N1C(=O)/C=C/C(=O)O (stereo not given)
> 100 µM

// fetch TGI; item: O=C(/C=C/c1ccc([N+](=O)[O-])cc1)c1ccc2c3c(cccc13)CC2 ; system: RXF 393 renal
21.3 µM

Name the recorded TGI of CC1=NN(c2nc(N)nc(/C(C#N)=C/c3cccn3-c3cc(Cl)cc(Cl)c3)n2)C(C)(C)C1 , assay system RXF 393 renal.
> 100 µM

Please indicate recorded TGI of COc1cc(/C=C2/C[C@H]3[C@@H]4CC=C5C[C@@H](OC(C)=O)CC[C@]5(C)[C@H]4CC[C@]3(C)NC2=O)cc(OC)c1OC measured with RXF 393 renal.
39.4 µM

// output TGI; input CCN(C(=S)N[C@H](C(=O)N[C@@H](C)C(=O)OC)C(C)C)c1ccccc1 ; system RXF 393 renal
> 100 µM

Report TGI from RXF 393 renal testing of C[Si](C)(C)c1ccc(-c2sc(-c3ccc([Si](C)(C)C)s3)c3c2C[Si]2(C3)Cc3c(-c4ccc([Si](C)(C)C)s4)sc(-c4ccc([Si](C)(C)C)s4)c3C2)s1
> 100 µM

Find the measured TGI of COc1ccc(/C=C\c2cc(OC)c(OC)c(OC)c2)cc1OC with RXF 393 renal as test system.
> 100 µM

GET TGI | system: RXF 393 renal | item: [N-]=[N+]=NC(CI)c1cn([C@H]2C[C@H](O)[C@@H](CO)O2)c(=O)[nH]c1=O (stereo not given in full)
> 100 µM

Given O=C(OCCN=c1c2ccccc2ccc2ccccc12)c1ccc([N+](=O)[O-])cc1 , report its TGI on RXF 393 renal.
> 100 µM

Lab note: record TGI of C1CN(SSN2CCOCC2)CCO1 tested on RXF 393 renal.
41.4 µM

Please tell me the measured TGI for Cc1cc(N2CCCC2)nc(N(CCNc2ccnc3cc(Cl)ccc23)Cc2ccco2)n1 ; system: RXF 393 renal.
6.74 µM

Enter recorded TGI with RXF 393 renal for N#Cc1ccccc1-c1nc2c3c(c(N)ccc3n1)C(=O)c1ccccc1-2 here.
> 100 µM

Supply TGI measured with RXF 393 renal for O=C(c1cc(Cl)ccc1Cl)N1CCN(C(=O)c2cc(Cl)ccc2Cl)CC1 .
> 100 µM

Using RXF 393 renal as the test system, report measured TGI of O=CC1CCCc2ccccc21 (stereo not given) .
> 100 µM

----------
Test system: SK-MEL-5 melanoma
Experiment: NCI tumour cell line growth inhibition, 48 h; in the data active = GI50 below about 0.43 µM; inactive = the rest
Pick one and only one: 1 (yes) = active, 0 (no) = inactive

Per the assay record, what outcome was assigned to CCc1ccc(NC(=O)COC(=O)c2cc([N+](=O)[O-])ccc2Sc2nnnn2C)cc1 ?
0 (no)

Give the logged outcome of this assay for the following compound: NC(=O)c1c(NC(=O)c2ccc3c(c2)OCO3)sc2c1CCC(=O)C2
0 (no)

How was O=C(NN1C(=O)CSC12CCCC2)c1[nH]c2ccc(Br)cc2c1-c1ccccc1 classified in this test?
0 (no)

Please indicate how the test categorized CCN(CC)Cc1ccc(Nc2nccc(-c3cnn4ncccc34)n2)cc1 .
1 (yes)

Test call for this compound, please: O=C(Nc1ccc(Cl)c(Cl)c1)O/N=C\c1c(Cl)ccc([N+](=O)[O-])c1Cl
0 (no)

Call for entry CN(C)c1ccc2c(c1)OC(N)=C(C#N)C2c1ccc2c(c1)CCO2 (stereo unspecified) :
1 (yes)

Please indicate how the test categorized CCOc1ccccc1N=Nc1c(C)[nH]n(-c2nc(-c3ccccc3)cs2)c1=O .
0 (no)

What classification did COc1ccc(C(=O)c2cc3c(N)c(C(=O)Nc4cccc5ccccc45)sc3nc2C)cc1 end up with in this test?
1 (yes)

State the result this test recorded for C/C=C(\C)C(=O)O[C@H]1C=CC(=O)O[C@@H]1CC[C@H](O)[C@H](C)O .
0 (no)

Please let me know the test result on file for O=C(COc1ccc(/C=C2\Oc3ccccc3C2=O)cc1)Nc1nc2c(s1)CCCC2 .
0 (no)

Field: outcome | Entry: Cn1cc(C2=C(c3cccc(OCC(O)CO)c3)C(=O)NC2=O)c2ccccc21 (stereo unspecified)
0 (no)

From: PubChem BioAssay (NCI)
